B1: TPR t1 (parent)
chain: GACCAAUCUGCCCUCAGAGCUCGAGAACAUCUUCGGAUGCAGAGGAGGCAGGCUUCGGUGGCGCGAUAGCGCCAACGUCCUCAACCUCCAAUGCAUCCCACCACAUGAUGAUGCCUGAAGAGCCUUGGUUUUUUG

- Variants of: B1
- METHOD SUMMARY: polymerase ribozyme fitness, log enrichment relative to wild type (log ratio); higher = more active; in vitro selection for triplet polymerase activity
Just so you know, the groups by polymerase ribozyme fitness (log ratio) go like this: lower: < -4; middle: ≥ -4 and < -1; upper: ≥ -1

See these solved cases before continuing.
| PRIMARY SEQUENCE | CLASSIFICATION |
| --- | --- |
| GACGAAUCUGCCCUCAGAGCUCGAGAACAUCUUCGGAUGGAGAGGAGGCAGGCUUCGGUGGCGCGAUAGCGCCAACGUCCUCAACCUCCAAUGCAUCCCACCACAUGAUGAUGCUUGAAGAGCCUUGGUUUUUUG | middle |
| GACCAAUCGGCCCUCAGAGCUCGAGAACAUCUUCGGAUGCAUAGGAGGCAGGCUACGGUGGCGCGAUAGCGCCAACGUCCUCAACCUCCAAUGCAUCCCACCACAUGAUGAUGCCUGAAGAGCCUUGGUUUUUUG | middle |
| GACCAAUCUGCCCUCAGAGCUCGAGAACAUCUUCGGAUGCAGAGGAGGCAGGCUUCGGUCGCGCGAUAGCGCCAACGUCCUCAACCUCCAAUGCGUCCCACCACAUGAUGAUGCCUGAAGAGCCUUGGUUUUUUG | upper |
| GACCGAUCUGCCCUCAGAGCUCGAGAACAUCUUCGGAUGCAGAGGAGGCAGGCUUCGGUGGCGCGAUAGCGCCAACGUACUCAACCUCCAAUGCAUCCCACCACAUGAUGAUGCGUGAAGAGCCGUGGUUAUUUG | middle |
| GACCAAUCUGCCCUCAGAGCUCGAGAACAUCUUCGCAUGCAGAGGAGGUAGGCUUCGGUGGCGCGAUAGCGCCGACGUCCUCAACCUCCAAUGCAUCCCAGCACAUGAUGAUGCCUGAUGAGCCUUGGUUUUUUG | middle |
| GACCAAUCUGCCCUCACAGCUCGAGAACAUCUUCAGAUGCAGAGGAGGCAGGCUUCGGUGGCGCGAUAGCGCCAACGUCCUCAACCUCCAAUGCAUCUCACCACAUGAUGAUGCCUGAAAAGCCUUGGUUUUUUG | lower |
| GACCAAUCUGCGCUCAGAGCUCGAGAAUAUCUUCGGAUGCAGAGGAGGCAGGCUUCGGUGGCGCGAUAGCGUCAACGUCCUCAACCUCCAAUGCAUCCCACCACAUGAUGAUGCCUGAAGAGUCGUGGUUUUUUG | upper |
| GACCAAUCUGCCCUCAGAGCUCGAGAACAUCUUCGGAUACAGAGGAGGCAGGCUUCGGUGGCGCGAUAGCGCCAACGUCCUCACCCUCCAAUGCAUCCCACCACAAGAUGAUGCCUGAAGAGCCUUGGUUUUUUG | upper |

query: Which band does GACCAAUCGGCCCUCAGAUCUCGAGAACAUCUUCGGAUGCAGAGGCGGCAGGCUUUGGUGGCGCGAUAGCGCCAACGUCCUCAACCUCCAAUGCAUCCCACCACAUGAUGAUGCCUGAAGAGCCUUGGUUUUUUG fall in?
result: middle

query: Which band does GACCAAUCUGCCCUCAGAGCUCGAGAACAUCUUCGGAUGCAGAGGAGGCAGGCUUUGGUGGCGCGAUAGCGCCAACGUCCUCAACCUCCAAUGCAUCCCACCACAUGAUGAUUCCUGAAGAGGCUUGGUGUUUUG fall in?
result: middle
